Data origin, for the record: ChEMBL document CHEMBL1155906

- Assay comment: Bioavailability in Sprague-Dawley rat at 10 mg/kg, po
- Format: ADME, organism-based
- Test parameters: in vivo
Measured property: bioavailability (%)
Could you give me the number in %? Just the number is fine.

Request the reported bioavailability associated with Fc1ccc(-c2noc(C3CCN(c4cnc5ccc(Cl)cc5c4)CC3)n2)c(Cl)c1 2

---

- Assay comment: Agonist activity at CXR2 receptor
- Format: functional
Measured property: EC50

Request the reported EC50 associated with Fc1ccc(-c2noc(C3CCN(c4cnc5ccc(Cl)cc5c4)CC3)n2)c(Cl)c1 > 50 µM

---

- Study system: Cannabinoid receptor 1 (Homo sapiens, UniProt P21554)
- Sequence (P21554 whole entry): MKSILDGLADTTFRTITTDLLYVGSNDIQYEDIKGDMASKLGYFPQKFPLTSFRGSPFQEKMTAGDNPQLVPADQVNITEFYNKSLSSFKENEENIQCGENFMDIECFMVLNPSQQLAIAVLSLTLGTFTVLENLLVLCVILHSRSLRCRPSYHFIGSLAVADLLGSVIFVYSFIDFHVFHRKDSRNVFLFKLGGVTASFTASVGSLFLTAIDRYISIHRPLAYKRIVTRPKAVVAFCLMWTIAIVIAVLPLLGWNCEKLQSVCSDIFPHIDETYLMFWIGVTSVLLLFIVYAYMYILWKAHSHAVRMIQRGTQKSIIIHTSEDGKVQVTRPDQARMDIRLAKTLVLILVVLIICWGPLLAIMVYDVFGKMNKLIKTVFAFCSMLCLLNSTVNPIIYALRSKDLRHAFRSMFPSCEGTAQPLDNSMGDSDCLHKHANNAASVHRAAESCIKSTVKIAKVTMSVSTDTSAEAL
- Assay comment: Agonist activity at human CB1 receptor expressed in insect Sf9 cells assessed as effect on Eu-GTP binding
Please go through the items and note down their log10(EC50).
Hey, these are logged values: log10 of EC50, nM being the unit before logging.

Request the reported log10(EC50) associated with Fc1ccc(-c2noc(C3CCN(c4cnc5ccc(Cl)cc5c4)CC3)n2)c(Cl)c1 3.16

Request the reported log10(EC50) associated with Fc1ccc(-c2noc(C[C@H]3CCN(c4cnc5ccccc5c4)C3)n2)c(Cl)c1 3.23

Request the reported log10(EC50) associated with O=C(CCc1nc(-c2ccc(F)cc2Cl)no1)Nc1cnc2ccccc2c1 2.61

Request the reported log10(EC50) associated with Fc1ccc(-c2noc(C3CCN(c4cnc5c(C(F)(F)F)cccc5c4)CC3)n2)c(Cl)c1 1.18

Request the reported log10(EC50) associated with Fc1ccc(-c2noc([C@@H]3CCC[C@H]3Nc3cnc4ccccc4c3)n2)c(Cl)c1 (racemic) 3.35

Request the reported log10(EC50) associated with Clc1ccc(-c2noc(C3CCN(c4cnc5ccccc5c4)CC3)n2)cc1 3.42

Request the reported log10(EC50) associated with Fc1ccc(-c2noc(CCCNc3cnc4ccccc4c3)n2)c(Cl)c1 2.67

Request the reported log10(EC50) associated with Fc1ccc(-c2noc(C[C@@H]3CCN(c4cnc5ccccc5c4)C3)n2)c(Cl)c1 3.10

Request the reported log10(EC50) associated with Fc1ccc(-c2noc(C3CCN(c4cnc5c(c4)CCCC5)CC3)n2)c(Cl)c1 2.96

Request the reported log10(EC50) associated with CC(C)(CCc1nc(-c2ccc(F)cc2Cl)no1)Nc1cnc2ccccc2c1 3.11
